assay: qHTS assay for small molecule agonists of the antioxidant response element (ARE) signaling pathway (AID 743202); conditions: HepG2 ARE-bla reporter, beta-lactamase FRET, 16 h; series mostly up to 73.3 µM
Results filed as inconclusive are left out. Calls of active or inactive are those of the source. Calls come from the whole dose curve; as a rule, active = well fitted activation curve with a large enough effect in the signal ratio in the repeat runs (not every such curve was filed as active); inconclusive = weak or mixed curves, or effect the other way; inactive = no such curve, though single readings can be large or run the other way; the % refers to the signal ratio.
Allowed answers: active, inactive

Record excerpt, results attached:
[[record]]
compound = "CNC(=O)CSP(=S)(OC)OC"
label_value = "inactive"

[[record]]
compound = "Brc1ccc(Br)cc1"
label_value = "inactive"

[[record]]
compound = "CCNc1nc(Cl)nc(NC(C)(C)C#N)n1"
label_value = "inactive"


**Q:** Status in this test for CN(C)P(=O)(N(C)C)N(C)C ?
**A:** inactive

**Q:** Assay outcome for Cl : what was it?
**A:** inactive

**Q:** Can you look up the reported call for O=S(=O)(O)C(F)(F)C(F)(F)C(F)(F)C(F)(F)C(F)(F)C(F)(F)C(F)(F)C(F)(F)F for me?
**A:** inactive

**Q:** Which outcome was assigned to CC(C)(c1ccc(OCC2CO2)cc1)c1ccc(OCC2CO2)cc1 (configuration not stated) in this test?
**A:** active

**Q:** Tell me the assay call for CCCCCCCCCCCCCl please.
**A:** inactive

**Q:** Outcome? CC1(C)Cc2cccc(O)c2O1
**A:** inactive

**Q:** How was CCOS(=O)(=O)OCC classified in this test?
**A:** inactive
